Field: activity (%) at 10 μM. Provide a value for each of the molecules that follow.
Target: human M1 receptor (hCHRM1) (Homo sapiens)
Construct: expressed in transfected cells
Experiment: Measurement of M1 receptor positive allosteric modulator (M1PAM) activity, Ca2+ fluorescence by FDSS/μ cell (Experimental Example 2)
Type: cell-based
Conditions: 10 μM test compound, 100% = acetylcholine 1 μM, 0% = DMSO
One number for each entry, in %.

Here is how some molecules turned out for activity (%) at 10 μM.
| Molecule | Result Units | activity (%) at 10 μM |
| --- | --- | --- |
| Cc1cc2c(cc1Cc1ccc(-n3cccn3)nc1)C(=O)N([C@H]1CCCC[C@@H]1O)CO2 (single isomer, unassigned) | % | 102 |
| C=Cc1ccc(Cc2cc3c(c(C)c2C)OCN([C@H]2COCC[C@@H]2O)C3=O)cn1 | % | 99 |
| CCc1cc2c(cc1Cc1ccc(-n3cccn3)cc1)C(=O)N([C@H]1COCC[C@@H]1O)CO2 | % | 99 |
| C#Cc1ccc(Cc2cc3c(c(C)c2C)OCN([C@H]2COCC[C@@H]2O)C3=O)cn1 | % | 99 |
| Cc1c(Cc2ccc(-n3cccn3)nc2)cc2c(c1C)OCN([C@H]1COCC[C@@H]1O)C2=O | % | 103 |
| Cc1cc2c(cc1Cc1ccc(-n3cccn3)nc1)C(=O)N([C@H]1COCC[C@@H]1O)CO2 | % | 103 |

Next up:
So what's the measured activity (%) at 10 μM for this one? "Cc1c(Cc2ccc(-n3cccn3)cc2)cc2c(c1F)OCN(CC(C)(C)O)C2=O"
91

* * *

Would you mind telling me the reported activity (%) at 10 μM of each entry?
Target: human M1 receptor (hCHRM1) (Homo sapiens)
Construct: expressed in transfected cells
Experiment: Measurement of M1 receptor positive allosteric modulator (M1PAM) activity, Ca2+ fluorescence by FDSS/μ cell (Experimental Example 2)
Format: cell-based
Details: 10 μM test compound, 100% = acetylcholine 1 μM, 0% = DMSO
Answers are plain numbers, in %.

| Mol | Result Units | activity (%) at 10 μM |
| --- | --- | --- |
| COc1ccc(Cc2cc3c(c(Cl)c2C)OCN([C@H]2COCC[C@@H]2O)C3=O)cn1 | % | 97 |
| Cc1c(Cc2ccc(-c3ccn(C)n3)cc2)cc2c(c1C)OCN([C@H]1COCC[C@@H]1O)C2=O | % | 99 |
| Cc1c(Cc2ccc(-n3cccn3)nc2)cc2c(c1F)OCN([C@H]1COCC[C@@H]1O)C2=O | % | 98 |

Value sought for every listed molecule: activity (%) at 10 μM.
1. Cc1c(Cc2ccc(C#C[Si](C)(C)C)nc2)cc2c(c1C)OCN([C@H]1COCC[C@@H]1O)C2=O
2. CCn1ccc(-c2ccc(Cc3cc4c(c(F)c3C)OCN([C@H]3CCC[C@@H]3O)C4=O)cn2)n1
3. Cc1nn(C)cc1-c1ccc(Cc2cc3c(c(F)c2C)OCN([C@H]2CCC[C@@H]2O)C3=O)cn1
4. CCc1cc2c(cc1Cc1ccc(OC)nc1)C(=O)N([C@H]1COCC[C@@H]1O)CO2

1: 96; 2: 105; 3: 103; 4: 116

* * *

Give measured activity (%) at 10 μM for each item. Keep answers brief.
Target: human M1 receptor (hCHRM1) (Homo sapiens)
Construct: expressed in transfected cells
Experiment: Measurement of M1 receptor positive allosteric modulator (M1PAM) activity, Ca2+ fluorescence by FLIPRtetra (Experimental Example 1)
Assay type: cell-based
Conditions: 10 μM test compound, 100% = acetylcholine 1 μM, 0% = DMSO
Numbers only, in %.

Field: example entries. Status: answers known.
| Compound | activity (%) at 10 μM |
| --- | --- |
| Cc1ccc(Cc2cc3c(c(Cl)c2C)OCN([C@H]2COCC[C@@H]2O)C3=O)cn1 | 102 |
| Cc1c(Cc2ccc(Cl)nc2)cc2c(c1C)OCN([C@H]1COCC[C@@H]1O)C2=O [Example 10] | 109 |
| Cc1c(Cc2ccc(-n3cccn3)cc2)cc2c(c1F)OCN(CC1CCCO1)C2=O (centres unmarked) | 104 |
| Cc1ccc(Cc2cc3c(c4ccccc24)OCN([C@H]2COCC[C@@H]2O)C3=O)cn1 (single isomer, unassigned) [Example 3] | 103 |
| O=C1c2cc(CN3CCC(F)(F)C3)c3ccccc3c2OCN1[C@H]1CCC[C@@H]1O | 93 |
| Cc1c(Cc2ccc(C#N)cc2)cc2c(c1F)OCN([C@H]1CCC[C@@H]1O)C2=O | 89 |
| C=Cc1ccc(Cc2cc3c(c4ccccc24)OCN([C@H]2COCC[C@@H]2O)C3=O)cn1 | 124 |

Look at this compound and give its reported activity (%) at 10 μM. "O=C1c2cc(CN3CCC(F)CC3)c3ccccc3c2OCN1[C@H]1CCC[C@@H]1O"
97

* * *

So I've got a bunch of compounds here, and I need their EC50 values.
Biological target: human M1 receptor (hCHRM1) (Homo sapiens, UniProt P11229)
Construct: expressed in transfected cells
Sequence (P11229 1-460): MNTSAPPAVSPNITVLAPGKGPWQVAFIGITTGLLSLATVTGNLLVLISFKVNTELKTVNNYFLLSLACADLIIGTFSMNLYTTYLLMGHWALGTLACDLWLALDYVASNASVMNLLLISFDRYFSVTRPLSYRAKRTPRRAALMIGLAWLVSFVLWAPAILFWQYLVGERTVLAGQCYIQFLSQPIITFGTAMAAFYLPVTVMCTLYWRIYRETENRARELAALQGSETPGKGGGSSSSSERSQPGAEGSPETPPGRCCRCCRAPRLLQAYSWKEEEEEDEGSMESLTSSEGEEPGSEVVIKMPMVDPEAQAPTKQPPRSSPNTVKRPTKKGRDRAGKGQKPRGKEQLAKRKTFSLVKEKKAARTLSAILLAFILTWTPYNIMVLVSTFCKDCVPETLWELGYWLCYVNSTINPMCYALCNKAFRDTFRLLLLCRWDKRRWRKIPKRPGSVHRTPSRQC
Experiment: Measurement of M1 receptor positive allosteric modulator (M1PAM) activity, Ca2+ fluorescence by FDSS/μ cell (Experimental Example 2)
Type: cell-based
Settings: inflection point of concentration-dependent curve, in presence of acetylcholine at EC20 (0.8-1.0 nM), CHO-K1 cells expressing hCHRM1, read-out: IP value
Answers are plain numbers, in nM.

Use these answered entries as a reference point.
| Mol | Target System | Result Units | EC50 |
| --- | --- | --- | --- |
| Cc1c(Cc2ccc(-c3ccnc(F)c3)nc2)cc2c(c1F)OCN([C@H]1CCC[C@@H]1O)C2=O | human M1 receptor (hCHRM1) (Homo sapiens, UniProt P11229) | nM | 12 |
| CCc1cc2c(cc1Cc1ccc(-n3cccn3)cc1)C(=O)N([C@H]1COCC[C@@H]1O)CO2 | human M1 receptor (hCHRM1) (Homo sapiens, UniProt P11229) | nM | 5.5 |
| COc1ccc(Cc2cc3c(c(Cl)c2C)OCN([C@H]2COCC[C@@H]2O)C3=O)cn1 | human M1 receptor (hCHRM1) (Homo sapiens, UniProt P11229) | nM | 5.7 |
| Cc1nn(C)cc1-c1ccc(Cc2cc3c(c(F)c2C)OCN([C@H]2CCC[C@@H]2O)C3=O)cn1 | human M1 receptor (hCHRM1) (Homo sapiens, UniProt P11229) | nM | 4.6 |
| Cc1c(Cc2ccc(-c3ccn(C)n3)cc2)cc2c(c1C)OCN([C@H]1COCC[C@@H]1O)C2=O | human M1 receptor (hCHRM1) (Homo sapiens, UniProt P11229) | nM | 4.4 |

Fill in EC50 for each of the 2 compounds listed.
1. Cc1c(Cc2ccc(-n3cccn3)nc2)cc2c(c1F)OCN([C@H]1COCC[C@@H]1O)C2=O
2. Cc1c(Cc2ccc(-n3nccn3)cc2)cc2c(c1C)OCN([C@H]1COCC[C@@H]1O)C2=O

1. 8.7
2. 38

Give human M1 receptor (hCHRM1) (Homo sapiens, UniProt P11229) EC50 for "C#Cc1ccc(Cc2cc3c(c(C)c2C)OCN([C@H]2COCC[C@@H]2O)C3=O)cn1"
9.1

* * *

Exercise: state measured activity (%) at 10 μM for each of the compounds provided.
Target: human M1 receptor (hCHRM1) (Homo sapiens, UniProt P11229)
Construct: expressed in transfected cells
Experiment: Measurement of M1 receptor positive allosteric modulator (M1PAM) activity, Ca2+ fluorescence by FDSS/μ cell (Experimental Example 2)
Type: cell-based
Details: 10 μM test compound, 100% = acetylcholine 1 μM, 0% = DMSO
Structures can show the parent of a compound that is named as a salt.
Numbers only, in %.

| Compound | Test Result |
| --- | --- |
| Cc1c(Cc2ccc(-c3ccnc(F)c3)nc2)cc2c(c1F)OCN([C@H]1CCC[C@@H]1O)C2=O [Example 89] | 102 |

Consider the following items and state reported activity (%) at 10 μM for each.
1. Cc1c(Cc2ccc(-c3ccn(C)n3)cc2)cc2c(c1F)OCN([C@H]1COCC[C@@H]1O)C2=O [Example 108]
2. Cc1c(Cc2ccc(-c3ccn(C)n3)nc2)cc2c(c1F)OCN([C@H]1CCCC[C@@H]1O)C2=O [Example 92]
3. Cc1c(Cc2ccc(-n3nccn3)cc2)cc2c(c1C)OCN([C@H]1COCC[C@@H]1O)C2=O [Example 142]
4. Cc1cc2c(cc1Cc1ccc(Cl)nc1)C(=O)N([C@H]1CCCC[C@@H]1O)CO2 [Example 140]

99
101
99
101

Take each entry in turn and give its activity (%) at 10 μM.
1. Cc1c(Cc2ccc(-n3cccn3)nc2)cc2c(c1Cl)OCN([C@H]1CCC[C@@H]1O)C2=O (single isomer, unassigned) [Example 97]
2. Cc1cc2c(cc1Cc1ccc(-c3ccn(C)n3)cc1)C(=O)N([C@H]1COCC[C@@H]1O)CO2 [Example 104]

99
99

Give activity (%) at 10 μM for each of the items listed below.
1. Cc1c(Cc2ccc(-c3ccn(C)n3)nc2)cc2c(c1Cl)OCN([C@H]1CCC[C@@H]1O)C2=O [Example 99]
2. Cc1c(Cc2ccc3nn(C)cc3c2)cc2c(c1C)OCN([C@H]1COCC[C@@H]1O)C2=O [Example 116]
3. Cc1c(Cc2ccc(-n3cccn3)nc2)cc2c(c1Cl)OCN([C@H]1COCC[C@@H]1O)C2=O [Example 106]
4. Cc1cc(-c2ccc(Cc3cc4c(c(F)c3C)OCN([C@H]3CCC[C@@H]3O)C4=O)cc2)cnn1 [Example 105, hydrochloride]

[97, 96, 113, 98]

Entry Cc1cc(-c2ccc(Cc3cc4c(c(F)c3C)OCN([C@H]3CCC[C@@H]3O)C4=O)cn2)ccn1 [Example 90] has what activity (%) at 10 μM?
102
